# credit: PubChem BioAssay AID651717

Quick reference for AC40 among some compounds
tested on: mESC Bmi1-luciferase reporter, firefly/renilla ratio, 24 h; test: compounds raising Bmi1 reporter signal – mouse embryonic stem cells, luciferase, cherry-pick, esBAF inhibitor project, dose response (AID 651717);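 also: luciferase knocked into Bmi1 locus with EF-1a renilla as cell number control; rising ratio signals esBAF inhibition which derepresses Bmi1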

>  <compound>
c1ccc(-c2nnc3oc(-c4cccs4)nn23)cc1

>  <AC40>
5.88 µM

$$$$
>  <compound>
CC(=O)c1ccc(OCc2cc(C(=O)N(C)Cc3cc(C)no3)no2)cc1

>  <AC40>
7.14 µM

$$$$
>  <compound>
O=c1c(-c2nc3ccccc3s2)cccn1Cc1ccc(Cl)cc1

>  <AC40>
3.09 µM

$$$$
>  <compound>
COC(=O)c1ccc2[nH]c(C3(O)CCCCC3)c(C)c2c1

>  <AC40>
5.55 µM

$$$$
>  <compound>
O=C(Nc1ccc(F)cc1)c1ccccc1

>  <AC40>
7.36 µM

$$$$
>  <compound>
Cc1ccc(C)c(OCc2nc3ccccc3[nH]2)c1

>  <AC40>
5.29 µM

$$$$
>  <compound>
CC1CCc2sc(C(=O)NC3CCCCC3)cc2C1 (configuration not stated)

>  <AC40>
1.08 µM

$$$$
>  <compound>
O=C(Nc1cccc(O)c1)c1ccc(Br)c(S(=O)(=O)N2CCCCC2)c1

>  <AC40>
17.6 µM

$$$$
>  <compound>
COc1ccc(-c2cn3c(C)c(C(=O)NC(C)(C)C)sc3n2)cc1

>  <AC40>
1.02 µM

$$$$
>  <compound>
c1ccc(Cn2cnc3ccccc32)cc1

>  <AC40>
0.984 µM

$$$$
>  <compound>
CC(=O)N1N=C(c2ccc(Br)cc2)CC1c1ccc(Br)cc1 (configuration not stated)

>  <AC40>
14.5 µM

$$$$
>  <compound>
CCc1nnc(NC(=O)c2ccc3c(=O)n4c(nc3c2)CCC4)s1

>  <AC40>
2.51 µM

$$$$
>  <compound>
Clc1ccc(-c2nnc(-c3cccc4ccccc34)o2)cc1

>  <AC40>
1.79 µM

$$$$
>  <compound>
CCCNC(=O)Nc1ccc2c(c1)C(=O)N(C)C[C@H](OC)[C@@H](C)CN(Cc1ccc(-c3ccccn3)cc1)[C@@H](C)CO2

>  <AC40>
14.1 µM

$$$$
>  <compound>
CCc1c(C)sc(NC(=O)c2cccs2)c1C(N)=O

>  <AC40>
2.66 µM

$$$$
>  <compound>
Cc1cc(Cl)ccc1OCc1nnc(-c2ccccc2C)o1

>  <AC40>
5.44 µM

$$$$
>  <compound>
CC(=O)Nc1ccc2nc(C)n(Cc3ccc(Cl)cc3)c(=O)c2c1

>  <AC40>
4.21 µM

$$$$
>  <compound>
COc1cccc(Nc2nc(-c3sc(C)nc3C)cs2)c1

>  <AC40>
8.61 µM

$$$$
>  <compound>
C=CCNc1nc(NCc2cccc(OC)c2)c2sc(-c3ccccc3)cc2n1

>  <AC40>
1.86 µM

$$$$
>  <compound>
CCn1c(COc2ccccc2)nc2ccccc21

>  <AC40>
22 µM

$$$$
>  <compound>
Nc1ccc(C(=O)OCc2nc3ccccc3[nH]2)cc1

>  <AC40>
19.1 µM

$$$$
>  <compound>
O=C(NC1CCCCC1)c1ccc(-c2ccccc2)cc1

>  <AC40>
3.77 µM

$$$$
>  <compound>
O=C(O)c1cc(-c2ccc(-c3c(-c4ccc5c(c4)OCO5)noc3-c3ccsc3)cc2)nc2ccccc12

>  <AC40>
6.89 µM

$$$$
>  <compound>
COc1ccc(-c2cc(C(=O)Nc3ccc(C(N)=O)cc3)c3ccccc3n2)cc1

>  <AC40>
4.1 µM

$$$$
>  <compound>
O=c1oc(-c2ccccc2)cc2ccccc12

>  <AC40>
3.89 µM

$$$$
>  <compound>
c1ccc(Nc2nc3ccccc3n3nnnc23)cc1

>  <AC40>
7.2 µM

$$$$
>  <compound>
Cc1ccc(-c2nc3ccccc3[nH]2)cn1

>  <AC40>
3.49 µM

$$$$
